Tested on: SF-268 CNS
Assay: NCI tumour cell line growth inhibition, 48 h
Each item that follows carries a reported TGI.

Consider the worked cases shown below.
INSERT INTO results (molecule, assay_metric, reported_value) VALUES
  ('COc1ccc(-c2nc(-c3ccccc3)c(-c3ccccc3)[nH]2)cc1OC1CCCC1', 'TGI', '> 100 µM'),
  ('CC1=NN(c2nc(N)nc(CSc3nc4n(c(=S)n3)CCN4)n2)C(C)(C)C1', 'TGI', '35.2 µM'),
  ('Cc1ccc(N(C(=O)Nc2ccccc2)C2=NCC(C)S2)cc1C (stereo unspecified)', 'TGI', '69.8 µM'),
  ('COCC(O)Cn1ccnc1[N+](=O)[O-] (stereo unspecified)', 'TGI', '> 100 µM'),
  ('Cc1nn(C(=O)Cc2ccccc2)c2c1C(c1ccc(O)cc1O)SC(N)=N2 (stereo unspecified)', 'TGI', '> 100 µM');

Please turn your attention to the following entry.
Ask: Param item = CCC1CN(C(=O)c2ccccc2)C(Cc2c[nH]c3ccccc23)C(=O)C1CC(=O)OC (stereo unspecified) ; retrieve measured TGI.
Result: > 100 µM
